System: biotinyl-Ile-oxazolone
Test: self-aminoacylation, catalytic enhancement (BIO) (fold over background); higher = more active; k-Seq, kA / k0A0; sequences stand for … in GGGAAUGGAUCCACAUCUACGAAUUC…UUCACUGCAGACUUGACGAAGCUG
Variants at the floor of the assay were thinned out.
measure: self-aminoacylation
Respond using a number only.

// known answers, use as guide
sequence	self-aminoacylation
GUACUUCAAACCAUCGGUCUG [Fam1A.1 aminoacylation ribozyme variant]	1.22
AUUCAUCUAGGUCAGCGGGUG [Fam2.2 aminoacylation ribozyme variant]	3.25
CCACGGUUCAAGCAAUCGGUC [Fam1B.1 aminoacylation ribozyme variant]	1.08
AAAUUUGCUUAUAGUCGCAAG [Fam3.1 aminoacylation ribozyme variant]	2.26
CUACUUCAAACAAUCGCCCUG [Fam1A.1 aminoacylation ribozyme variant]	1.05
ACUCACCUCGGUCAUCGGGUG [Fam2.2 aminoacylation ribozyme variant]	4.08

Query string: Name the reported self-aminoacylation value associated with the sequence CCAGACUUCAAGCGAUCGGUC [Fam1B.1 aminoacylation ribozyme variant]
Result string: 1.36

Query string: Name the reported self-aminoacylation value associated with the sequence AUUCCCCUAGGUCAUCGGGAG [Fam2.2 aminoacylation ribozyme variant]
Result string: 6.89
